Source: ChEMBL document CHEMBL2311362

Each entry below lists one item and its recorded IC50 value.
TESTED_ON: Prostaglandin E synthase (Homo sapiens)
Sequence (O14684 whole entry): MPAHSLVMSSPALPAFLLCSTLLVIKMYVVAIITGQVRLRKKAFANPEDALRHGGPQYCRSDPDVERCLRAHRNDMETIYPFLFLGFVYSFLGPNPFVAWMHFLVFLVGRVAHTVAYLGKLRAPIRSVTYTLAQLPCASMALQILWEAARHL

> print(dat)
                               query.smiles  experimental.endpoint  experimental.value
1  Cc1ccc(S(=O)(=O)NCCn2nnc(C(=O)O)c2C(=O)O)cc1                   IC50              4.2 µM
2  O=C(O)c1nnn(CCNS(=O)(=O)c2ccccc2C(F)(F)F)c1C(=O)O                   IC50              3.3 µM

Turning now to a further molecule:
Query block: Would you mind telling me what IC50 value was observed for "Cc1ccc(S(=O)(=O)NCn2nnc(C(=O)O)c2C(=O)O)cc1" ?
Result block: 6.9 µM
